# System: HOP-62 complex spheroids with HUVEC/MSC, viability
# test method notes: Anticancer human tumor HOP-62 cell line growth inhibition [RAS];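 also: spheroids exposed to agents for seven days before readout; 100% = DMSO vehicle control viability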
# recorded conditions: second compound 10 µM; first compound 1 µM; hits give low values
quantity measured: viability, T/C (%)
Write the number in % without appending the unit.

For orientation, consider the following solved cases.
compound	readout units	viability, T/C
C[C@@H](NC(=O)c1ncnc(N)c1Cl)c1ncc(C(=O)Nc2cc(C(F)(F)F)c(Cl)cn2)s1 + C#Cc1c(F)ccc2cc(O)cc(-c3ncc4c(N5CC6CCC(C5)N6)nc(OCC56CCCN5CC(F)C6)nc4c3F)c12	%	49.9
CC(Nc1ccc2c(c1)OCCn1cc(N3C(=O)OCC3C(F)F)nc1-2)C(N)=O (stereo not drawn) + C#Cc1c(F)ccc2cc(O)cc(-c3ncc4c(N5CC6CCC(C5)N6)nc(OCC56CCCN5CC(F)C6)nc4c3F)c12	%	17.3

# evaluate next
QUERY: Item under review: CCN1CCN(Cc2ccc(Nc3ncc(F)c(-c4cc(F)c5nc(C)n(C(C)C)c5c4)n3)nc2)CC1 + C#Cc1c(F)ccc2cc(O)cc(-c3ncc4c(N5CC6CCC(C5)N6)nc(OCC56CCCN5CC(F)C6)nc4c3F)c12 . Reported viability, T/C?
RESULT: 42.5
